The reported numbers originate from ChEMBL document CHEMBL5058577.

Tested on: Fibroblast
protocol: Multiplex assay against human fibroblast
Type: toxicity, cell-based
test.conditions: 48 h, 10 µM, compound concentration 10 uM, replicate 1
attribute.measured: Population Tubulin-Different-Phenotype (%)

| molecule | quantitative.readout |
| --- | --- |
| O=C(NCCN1CCC(n2c(=O)[nH]c3cc(Cl)ccc32)CC1)c1ccc(F)cc1 [HALOPEMIDE] | 77 |
| Cc1sc2c(c1C)C(c1ccc(Cl)cc1)=N[C@@H](CC(=O)NCCCCCCCCNC(=O)COc1cccc3c1C(=O)N(C1CCC(=O)NC1=O)C3=O)c1nnc(C)n1-2 (some centres not stated) | 55 |
| Br.CS(=O)(=O)Nc1c(O)ccc2c1CCCC2C1=NCCN1 (configuration not stated) | 21 |
| Cl.N=C(N)NC(=O)Cc1c(Cl)cccc1Cl [GUANFACINE HYDROCHLORIDE] | 24 |
| COC[C@@H](c1ccc(C(F)(F)F)cc1)N1CCN(C2(C)CCN(C(=O)c3c(C)ncnc3C)CC2)C[C@@H]1C.O=C(O)/C=C\C(=O)O [VICRIVIROC MALEATE] | 48 |
| O=C1[C@H](Cc2ccc(O)cc2)N2C(=O)CCN(C(=O)NCc3ccccc3)[C@H]2CN1Cc1cccc2ccccc12 | 85 |
| Cc1noc(-c2ccc(-c3ccc(CC(=O)O)cc3)cc2)c1NC(=O)O[C@H](C)c1ccccc1Cl | 35 |

---

Reported Total Cell Count is given for each of the following compounds.
Tested on: U2OS
protocol: Multiplex assay against U2OS
Type: toxicity, cell-based
test.conditions: human, 24 h, 10 µM, compound concentration 10 uM, replicate 2

| compound | Total Cell Count |
| --- | --- |
| CCCCC(=O)N(Cc1ccc(-c2ccccc2-c2nnn[nH]2)cc1)[C@H](C(=O)O)C(C)C | 135 |
| Cc1onc(-c2ccccc2Cl)c1C(=O)N(C)c1ccc(Cl)cc1 | 129 |
| O=C(CCCc1ccccc1)Nc1nc2ccccc2c(=O)s1 | 124 |
| Br.CS(=O)(=O)Nc1c(O)ccc2c1CCCC2C1=NCCN1 (stereo not drawn) | 103 |
| Cc1sc2c(c1C)C(c1ccc(Cl)cc1)=N[C@@H](CC(=O)NCCCCCCCCNC(=O)COc1cccc3c1C(=O)N(C1CCC(=O)NC1=O)C3=O)c1nnc(C)n1-2 (stereo partly drawn) | 130 |
| Cc1cccc(NC(=O)CN2CCC(c3ccccn3)CC2)c1.Cl.Cl | 131 |
| N#Cc1c(Oc2cccc(OS(=O)(=O)CCCC(F)(F)F)c2)cccc1C(F)(F)F | 130 |
| Cc1noc(-c2ccc(-c3ccc(CC(=O)O)cc3)cc2)c1NC(=O)O[C@H](C)c1ccccc1Cl | 154 |
| Cc1c(CC(=O)O)c2cccnc2n1Cc1ccc(S(C)(=O)=O)cc1C(F)(F)F | 119 |
| CN[C@@H](C)C(=O)N[C@H](C(=O)N1CCC[C@H]1C(=O)Nc1snnc1-c1ccccc1)C1CCCCC1 | 121 |
| NCCc1cn(S(=O)(=O)c2c(Cl)nc3sccn23)c2ccccc12.O=C(O)C(=O)O | 116 |
| Cc1cnc(-c2cc(N3CCN(C(=O)CCS(C)(=O)=O)CC3)ncc2Cl)c(C)c1 | 103 |
| CC(C)c1noc(N2CCC(COc3ccc(-c4ccc(S(C)(=O)=O)cc4)nc3)CC2)n1 | 143 |
| COc1ccccc1N1CCN(C[C@@H](C(=O)NC(C)(C)C)c2ccccc2)CC1.Cl.Cl | 113 |
| CCCCCC(O)/C=C/[C@H]1C(=O)CC(O)C1C/C=C\CCCC(=O)O (stereo partly drawn) | 118 |
| CC(C)COc1ccc(CNC(=O)N(Cc2ccc(F)cc2)C2CCN(C)CC2)cc1 | 135 |
| C[C@H](N)COC(=O)[C@@H](CCCCN)NC(=O)Cc1c(-c2ccc3ccccc3c2)[nH]c2c1ccc1ccccc12 | 142 |
| N#Cc1cc(F)cc(-c2nc(-c3ccc(F)cn3)no2)c1 | 216 |

---

Tested on: Fibroblast
protocol: Multiplex assay against human fibroblast
Type: toxicity, cell-based
test.conditions: 48 h, 10 µM, compound concentration 10 uM, replicate 2

| compound | Population Mitotic Cells (%) |
| --- | --- |
| O=C1[C@H](Cc2ccc(O)cc2)N2C(=O)CCN(C(=O)NCc3ccccc3)[C@H]2CN1Cc1cccc2ccccc12 | 33 |
| Cc1sc2c(c1C)C(c1ccc(Cl)cc1)=N[C@@H](CC(=O)NCCCCCCCCNC(=O)COc1cccc3c1C(=O)N(C1CCC(=O)NC1=O)C3=O)c1nnc(C)n1-2 (stereo partly specified) | 42 |
| C[C@H](N)COC(=O)[C@@H](CCCCN)NC(=O)Cc1c(-c2ccc3ccccc3c2)[nH]c2c1ccc1ccccc12 | 44 |
| CC(/C=C1\SC(=S)N(CCCC(=O)Nc2ccc(C(=O)O)c(O)c2)C1=O)=C\c1ccccc1 | 40 |
| O=C(NCCN1CCC(n2c(=O)[nH]c3cc(Cl)ccc32)CC1)c1ccc(F)cc1 [HALOPEMIDE] | 52 |
| N#Cc1cc(F)cc(-c2nc(-c3ccc(F)cn3)no2)c1 | 50 |

---

Test system: U2OS
protocol: Multiplex assay against U2OS
Assay type: toxicity, cell-based
test.conditions: human, 24 h, 10 µM, compound concentration 10 uM, replicate 1
Reported Population Mitochondria Different-Phenotype (%) is given for each of the following compounds.
attribute.measured: Population Mitochondria Different-Phenotype (%)

| compound | quantitative.readout |
| --- | --- |
| Cc1onc(-c2ccccc2Cl)c1C(=O)N(C)c1ccc(Cl)cc1 | 6 |
| CCCCCC(O)/C=C/[C@H]1C(=O)CC(O)C1C/C=C\CCCC(=O)O (stereo partly specified) | 4 |
| CCc1cc2cc(NS(=O)(=O)c3ccc(C#N)cc3)ccc2n(CC)c1=O | 2 |
| Cc1noc(-c2ccc(-c3ccc(CC(=O)O)cc3)cc2)c1NC(=O)O[C@H](C)c1ccccc1Cl | 2 |
| CCCCC1=NC2(CCCC2)C(=O)N1Cc1ccc(-c2ccccc2-c2nnn[nH]2)cc1 [IRBESARTAN] | 3 |
| CCCOc1ccc2[nH]cc(C3=CCNCC3)c2n1.Cl | 3 |

---

Reported Population Mitotic Cells (%) is given for each of the following molecules.
Tested on: HEK-293T
protocol: Multiplex assay against HEK293T
Type: toxicity, cell-based
test.conditions: human, 12 h, 10 µM, compound concentration 10 uM, replicate 1
attribute.measured: Population Mitotic Cells (%)

| molecule | quantitative.readout |
| --- | --- |
| CC(C)COc1ccc(CNC(=O)N(Cc2ccc(F)cc2)C2CCN(C)CC2)cc1 [PIMAVANSERIN] | 37 |
| CCCCCC(O)/C=C/[C@H]1C(=O)CC(O)C1C/C=C\CCCC(=O)O (stereo partly drawn) | 51 |
| CN1CCN(c2cc(-c3ccccc3)nc(N)n2)CC1 | 76 |
| CC(C)(C)c1cc(NC(=O)Nc2ccc(-c3cn4c(n3)sc3cc(OCCN5CCOCC5)ccc34)cc2)no1 [QUIZARTINIB] | 46 |
| CCCCC(=O)N(Cc1ccc(-c2ccccc2-c2nnn[nH]2)cc1)[C@H](C(=O)O)C(C)C | 78 |
| CN[C@@H](C)C(=O)N[C@H](C(=O)N1CCC[C@H]1C(=O)Nc1snnc1-c1ccccc1)C1CCCCC1 [GDC-0152] | 49 |
| C[C@H](N)COC(=O)[C@@H](CCCCN)NC(=O)Cc1c(-c2ccc3ccccc3c2)[nH]c2c1ccc1ccccc12 | 58 |
| CC[C@@H](C)Nc1nc(C)nc2c(-c3ccc(OC)nc3C)c(C)nn12 [PEXACERFONT] | 61 |

---

System: Fibroblast
protocol: Multiplex assay against human fibroblast
Format: toxicity, cell-based
test.conditions: 48 h, 10 µM, compound concentration 10 uM, replicate 2
Reported Population Fragmented Nuclei (%) is given for each of the following molecules.
attribute.measured: Population Fragmented Nuclei (%)

| molecule | quantitative.readout |
| --- | --- |
| N#Cc1cc(F)cc(-c2nc(-c3ccc(F)cn3)no2)c1 | 44 |
| Cl.NCCc1ccc(O)c(O)c1 [DOPAMINE HYDROCHLORIDE] | 31 |
| Cc1sc2c(c1C)C(c1ccc(Cl)cc1)=N[C@@H](CC(=O)NCCCCCCCCNC(=O)COc1cccc3c1C(=O)N(C1CCC(=O)NC1=O)C3=O)c1nnc(C)n1-2 (stereo partly drawn) | 38 |
| O=C1[C@H](Cc2ccc(O)cc2)N2C(=O)CCN(C(=O)NCc3ccccc3)[C@H]2CN1Cc1cccc2ccccc12 | 32 |
| CCc1cc2cc(NS(=O)(=O)c3ccc(C#N)cc3)ccc2n(CC)c1=O | 30 |
| Cc1noc(-c2ccc(-c3ccc(CC(=O)O)cc3)cc2)c1NC(=O)O[C@H](C)c1ccccc1Cl | 40 |
| C[C@H](N)COC(=O)[C@@H](CCCCN)NC(=O)Cc1c(-c2ccc3ccccc3c2)[nH]c2c1ccc1ccccc12 | 36 |
| NCCc1cn(S(=O)(=O)c2c(Cl)nc3sccn23)c2ccccc12.O=C(O)C(=O)O | 31 |
| Cc1cccc(NC(=O)CN2CCC(c3ccccn3)CC2)c1.Cl.Cl | 54 |
| O=C(NCCN1CCC(n2c(=O)[nH]c3cc(Cl)ccc32)CC1)c1ccc(F)cc1 [HALOPEMIDE] | 35 |
| CN[C@@H](C)C(=O)N[C@H](C(=O)N1CCC[C@H]1C(=O)Nc1snnc1-c1ccccc1)C1CCCCC1 | 39 |
| CN(C)C(=O)Cn1cc(-c2ccc(-c3cncc4ccccc34)cc2)cn1 | 47 |
| N#Cc1c(Oc2cccc(OS(=O)(=O)CCCC(F)(F)F)c2)cccc1C(F)(F)F | 43 |
| CCCCC1=NC2(CCCC2)C(=O)N1Cc1ccc(-c2ccccc2-c2nnn[nH]2)cc1 | 37 |
| CC(C)(C)c1cc(NC(=O)Nc2ccc(-c3cn4c(n3)sc3cc(OCCN5CCOCC5)ccc34)cc2)no1 | 44 |
| CC[C@@H](C)Nc1nc(C)nc2c(-c3ccc(OC)nc3C)c(C)nn12 | 32 |
| CC(/C=C1\SC(=S)N(CCCC(=O)Nc2ccc(C(=O)O)c(O)c2)C1=O)=C\c1ccccc1 | 34 |
| CC(C)c1noc(N2CCC(COc3ccc(-c4ccc(S(C)(=O)=O)cc4)nc3)CC2)n1 | 31 |
